These data points were gathered from patent US11033535B2.

- Assay: Pharmacokinetic evaluation following a single oral and intravenous administration
- Type: in vivo, CD1 mouse
- Settings: CD1, mouse, plasma, iv, 1 mg/kg, Table 9, IV Dose: 1 mg/kg, 1 h, Mouse 3; read-out: Concentration
Measure name: concentration at 1 h

Form field concentration at 1 h, entry CC(=O)N[C@@H](Cc1ccc(CN(C)C)cc1)c1nnc(-c2cccc(OC(F)(F)F)c2)s1 [Compound 42320] : 47.1 ng/mL

----------
- Assay: Pharmacokinetic evaluation following a single oral and intravenous administration
- Assay type: in vivo, CD1 mouse
- Settings: CD1, mouse, plasma, iv, 1 mg/kg, Table 4, IV Dose: 1 mg/kg, Mouse 1
Measure name: C0 (ng/mL)
Give just the numeric value; ng/mL need not be written.

The value of C0 measured for the molecule CNCc1ccc(C[C@H](NC(C)=O)c2nnc(-c3cccc(OC(F)(F)F)c3)s2)cc1 turned out to be 105

----------
- Assay: Pharmacokinetic evaluation following a single oral and intravenous administration
- Assay type: in vivo, CD1 mouse
- Settings: CD1, mouse, plasma, iv, 1 mg/kg, Table 4, IV Dose: 1 mg/kg, Mouse 1; read-out: Vss—obs
Measure name: Vd
Remember to follow the number with its unit.

For CNCc1ccc(C[C@H](NC(C)=O)c2nnc(-c3cccc(OC(F)(F)F)c3)s2)cc1 [Compound 42140] the molecule record lists Vd as 21.8 L/kg

----------
- Assay: Pharmacokinetic evaluation following a single oral and intravenous administration
- Format: in vivo, CD1 mouse
- Settings: CD1, mouse, plasma, po, 5 mg/kg, Table 5, PO Dose: 5 mg/kg, 2 h, mean; read-out: Concentration, Mean
Measure name: concentration at 2 h (ng/mL)
The figure you give is taken to be in ng/mL; do not add the unit.

Input CNCc1ccc(C[C@H](NC(C)=O)c2nnc(-c3cccc(OC(F)(F)F)c3)s2)cc1 . Output concentration at 2 h: 151

----------
- Assay: Pharmacokinetic evaluation following a single oral and intravenous administration
- Assay type: in vivo, CD1 mouse
- Settings: CD1, mouse, plasma, iv, 1 mg/kg, Table 3, IV Dose: 1 mg/kg, 0.25 h, Mouse 2; read-out: Concentration
Measure name: concentration at 0.25 h (ng/mL)
Form entry: value (ng/mL) — number only.

Record CNCc1ccc(C[C@H](NC(C)=O)c2nnc(-c3cccc(OC(F)(F)F)c3)s2)cc1 . Reported concentration at 0.25 h: 65

----------
- Assay: Pharmacokinetic evaluation following a single oral and intravenous administration
- Format: in vivo, CD1 mouse
- Settings: CD1, mouse, plasma, iv, 1 mg/kg, Table 10, IV Dose: 1 mg/kg, mean; read-out: T1/2, Mean (converted)
Measure name: half-life (h)
Output spec: scalar in h, unitless text.

// half-life value for CC(=O)N[C@@H](Cc1ccc(CN(C)C)cc1)c1nnc(-c2cccc(OC(F)(F)F)c2)s1 : 2.41

----------
- Assay: Pharmacokinetic evaluation following a single oral and intravenous administration
- Format: in vivo, CD1 mouse
- Settings: CD1, mouse, plasma, po, 5 mg/kg, Table 11, PO Dose: 5 mg/kg, 0.5 h, Mouse 6; read-out: Concentration
Measure name: concentration at 0.5 h

# concentration at 0.5 h (compound: CC(=O)N[C@@H](Cc1ccc(CN(C)C)cc1)c1nnc(-c2cccc(OC(F)(F)F)c2)s1 ) is 122 ng/mL

----------
- Assay: Pharmacokinetic evaluation following a single oral and intravenous administration
- Type: in vivo, CD1 mouse
- Settings: CD1, mouse, plasma, po, 5 mg/kg, Table 12, PO Dose: 5 mg/kg, Mouse 4; read-out: MRTInf—obs
Measure name: MRT inf (h)
Quick reminder: number only, in h, skip the unit.

Form: molecule = CC(=O)N[C@@H](Cc1ccc(CN(C)C)cc1)c1nnc(-c2cccc(OC(F)(F)F)c2)s1 [Compound 42320] ; MRT inf = 5.27

----------
- Assay: Pharmacokinetic evaluation following a single oral and intravenous administration
- Assay type: in vivo, CD1 mouse
- Settings: CD1, mouse, plasma, po, 5 mg/kg, Table 11, PO Dose: 5 mg/kg, 0.25 h, Mouse 4; read-out: Concentration
Measure name: concentration at 0.25 h (ng/mL)
Numeric only. Scale: ng/mL

// sample CC(=O)N[C@@H](Cc1ccc(CN(C)C)cc1)c1nnc(-c2cccc(OC(F)(F)F)c2)s1 , its concentration at 0.25 h was 100

----------
- Assay: Pharmacokinetic evaluation following a single oral and intravenous administration
- Assay type: in vivo, CD1 mouse
- Settings: Table 10, IV Dose: 1 mg/kg, mean
Measure name: AUClast/D, Mean (h·ng/mL per mg/kg)
Kindly answer with a numeric value in h·ng/mL per mg/kg, unit omitted.

Documented AUClast/D, Mean of CC(=O)N[C@@H](Cc1ccc(CN(C)C)cc1)c1nnc(-c2cccc(OC(F)(F)F)c2)s1 : 165

----------
- Assay: Pharmacokinetic evaluation following a single oral and intravenous administration
- Assay type: in vivo, CD1 mouse
- Settings: CD1, mouse, plasma, po, 5 mg/kg, Table 5, PO Dose: 5 mg/kg, 0.5 h, mean; read-out: Concentration, Mean
Measure name: concentration at 0.5 h (ng/mL)
Report as a plain number; the unit ng/mL is understood.

Lab note: CNCc1ccc(C[C@H](NC(C)=O)c2nnc(-c3cccc(OC(F)(F)F)c3)s2)cc1 gave concentration at 0.5 h of 97

----------
- Assay: Pharmacokinetic evaluation following a single oral and intravenous administration
- Type: in vivo, CD1 mouse
- Settings: CD1, mouse, plasma, po, 5 mg/kg, Table 5, PO Dose: 5 mg/kg, 1 h, mean; read-out: Concentration, Mean
Measure name: concentration at 1 h (ng/mL)
Note: unit ng/mL is implicit; provide only the numeric part.

// sample CNCc1ccc(C[C@H](NC(C)=O)c2nnc(-c3cccc(OC(F)(F)F)c3)s2)cc1 , its concentration at 1 h was 127

----------
- Assay: Pharmacokinetic evaluation following a single oral and intravenous administration
- Assay type: in vivo, CD1 mouse
- Settings: CD1, mouse, plasma, iv, 1 mg/kg, Table 3, IV Dose: 1 mg/kg, 24 h, Mouse 3; read-out: Concentration
Measure name: concentration at 24 h (ng/mL)
Give the value, in units of ng/mL, as a plain number.

Documented concentration at 24 h of CNCc1ccc(C[C@H](NC(C)=O)c2nnc(-c3cccc(OC(F)(F)F)c3)s2)cc1 [Compound 42140] : 4.27

----------
- Assay: Pharmacokinetic evaluation following a single oral and intravenous administration
- Type: in vivo, CD1 mouse
- Settings: CD1, mouse, plasma, po, 5 mg/kg, Table 12, PO Dose: 5 mg/kg, Mouse 4; read-out: T1/2 (converted)
Measure name: half-life (h)
Lab book: enter the figure in h, no units written.

Recorded half-life (molecule CC(=O)N[C@@H](Cc1ccc(CN(C)C)cc1)c1nnc(-c2cccc(OC(F)(F)F)c2)s1 [Compound 42320] ): 3.56

----------
- Assay: Pharmacokinetic evaluation following a single oral and intravenous administration
- Assay type: in vivo, CD1 mouse
- Settings: CD1, mouse, plasma, iv, 1 mg/kg, Table 9, IV Dose: 1 mg/kg, 4 h, Mouse 3; read-out: Concentration
Measure name: concentration at 4 h (ng/mL)
Return type: number; implicit unit ng/mL.

In plain terms, CC(=O)N[C@@H](Cc1ccc(CN(C)C)cc1)c1nnc(-c2cccc(OC(F)(F)F)c2)s1 [Compound 42320] has a documented concentration at 4 h of 13

----------
- Assay: Pharmacokinetic evaluation following a single oral and intravenous administration
- Type: in vivo, CD1 mouse
- Settings: CD1, mouse, plasma, po, 5 mg/kg, Table 6, PO Dose: 5 mg/kg, mean; read-out: MRTInf—obs, Mean
Measure name: MRT inf
Include the unit right after the number.

The measured MRT inf associated with CNCc1ccc(C[C@H](NC(C)=O)c2nnc(-c3cccc(OC(F)(F)F)c3)s2)cc1 reads 13.4 h

----------
- Assay: Pharmacokinetic evaluation following a single oral and intravenous administration
- Format: in vivo, CD1 mouse
- Settings: CD1, mouse, plasma, po, 5 mg/kg, Table 11, PO Dose: 5 mg/kg, 2 h, Mouse 5; read-out: Concentration
Measure name: concentration at 2 h (µg/mL)
Just the number please, in µg/mL, no unit attached.

GET /value?item= CC(=O)N[C@@H](Cc1ccc(CN(C)C)cc1)c1nnc(-c2cccc(OC(F)(F)F)c2)s1 [Compound 42320] &field=concentration at 2 h returns 0.1

----------
- Assay: Pharmacokinetic evaluation following a single oral and intravenous administration
- Type: in vivo, CD1 mouse
- Settings: CD1, mouse, plasma, po, 5 mg/kg, Table 11, PO Dose: 5 mg/kg, 0.25 h, Mouse 6; read-out: Concentration
- Procedure: A NMP stock solution was prepared by adding 1.136 mL of NMP to 5.68 mg of compound no. 42140 with vortexing and sonification, to obtain a solution with a concentration at 5 mg/mL of 42140:01. Next, to prepare an intravenous formulation, 0.100 mL of the 5 mg/mL stock solution was placed in a new vial. 0.100 mL of NMP and 0.400 mL of PEG400 were added with vortexing and sonification, followed by addition of 0.400 mL of saline with vortexing and sonification. […] 42140:01. […]
Measure name: concentration at 0.25 h (ng/mL)
Entry rule: numbers only, all in ng/mL.

GET /value?item= CC(=O)N[C@@H](Cc1ccc(CN(C)C)cc1)c1nnc(-c2cccc(OC(F)(F)F)c2)s1 &field=concentration at 0.25 h returns 78.6
